# System: NCI-H522 lung
# procedure details: NCI tumour cell line growth inhibition, 48 h
measured parameter: TGI

| molecule | target | experimental value |
| --- | --- | --- |
| CC(C)(C)OC(=O)C1CCC/C1=N/Nc1ccc([N+](=O)[O-])cc1[N+](=O)[O-] (stereo unspecified) | NCI-H522 lung | > 100 µM |
| CC[C@H](C)[C@H](NC(=O)c1ccccn1)C(=O)N(C)[C@H](C[C@@H](OC(C)=O)c1nc(C(=O)N[C@@H](Cc2ccccc2)C[C@H](C)C(=O)OC)cs1)C(C)C | NCI-H522 lung | 38.9 µM |
| CN[C@@H](C)C(=O)N[C@H]1CCS[C@H]2CC(C)(C)[C@@H](C(=O)N[C@H]3c4ccccc4C[C@H]3OCC#CC#CCO[C@@H]3Cc4ccccc4[C@@H]3NC(=O)[C@H]3N4C(=O)[C@@H](NC(=O)[C@H](C)NC)CCS[C@H]4CC3(C)C)N2C1=O | NCI-H522 lung | 32 µM |
| Clc1ccc(COc2ccccc2/C=N/c2c(-c3ccco3)nc3ccccn23)c(Cl)c1 | NCI-H522 lung | > 100 µM |
| CC(C)=CCNc1ncnc2c1c(C#N)cn2C1OC(CO)C(O)C1O (stereo unspecified) | NCI-H522 lung | > 50.3 µM |

Q: Look up TGI: C=C1CC2(CC(c3ccccc3OC)OC(c3ccccc3OC)C2)OC1=O (stereo unspecified)
Ans: 2.98 µM

Q: Can you handle Cc1ccc(S(=O)(=O)c2ccccc2)cc1 next?
Ans: 4.68 µM

Q: Item: NC(CCC(=O)Nc1ccc(O)cc1)C(=O)O (stereo unspecified)
Ans: > 100 µM

Q: Can you check Nc1ccc(S(=O)(=O)c2ccc(N)cc2)cc1 next?
Ans: > 100 µM

Q: Query C=C(CBr)CCCOCc1ccccc1 next
Ans: 49.1 µM

Q: Another: O=C1C=CC(=O)C(CNc2ccc(C(=O)OC34CC5CC(CC(C5)C3)C4)cc2)=C1Br
Ans: 1.44 µM

Q: Repeat for the following molecule: CCCCCC(=O)Nc1n[nH]nc1C#N
Ans: > 100 µM

Q: Now this one: O=c1n(-c2ccc(Cl)c(Cl)c2)c(=O)n(-c2ccc(Cl)c(Cl)c2)c(=O)n1-c1ccc(Cl)c(Cl)c1
Ans: 11.5 µM

Q: Query CCOC(=O)[C@H]1O[C@@H]1C(=O)NC(CC(C)C)C(=O)NCCC(C)C (stereo partly specified) next
Ans: > 100 µM

Q: // query: CCOC(=O)C1OC(=O)CC1C1(C(=O)OCC)C=CC(=O)O1 (stereo unspecified)
Ans: > 100 µM

Q: Now try Cc1cn(CCCC2=NCCCN2)c(=O)[nH]c1=O .
Ans: > 100 µM

* * *

Some molecules, each annotated with its measured TGI.
# Tested on: HS 578T breast
# procedure details: NCI tumour cell line growth inhibition, 48 h
Where a SMILES comes first, the peptide text is derived from it. [ ]: non-standard residue; d: D form.

| molecule | measured parameter | experimental value |
| --- | --- | --- |
| S=C(S)NCCNC(=S)S.[Cu+2] | TGI | > 100 µM |
| COC(=O)C12C3C4(C(=O)OC)C1C1(C(=O)OC)C2C3(C(=O)OC)C41C(=O)N(C(C)C)C(C)C (stereo not drawn) | TGI | > 100 µM |

Q: Requested read-out: TGI. Entry: NC(N)=NCCC[C@H]1NC(=O)[C@@H](CCC(=O)O)NC(=O)[C@@H](CC(=O)O)NC(=O)[C@@H](CCC(=O)O)NC(=O)[C@H](Cc2c[nH]c3ccccc23)NC1=O (cyclo(W[dE][dD][dE][dR]))
Ans: > 7.5 µM

Q: What would you report for CN[C@@H](C)C(=O)N[C@H]1CCS[C@H]2CC(C)(C)[C@@H](C(=O)N[C@H]3c4ccccc4C[C@H]3OCC#CC#CCO[C@@H]3Cc4ccccc4[C@@H]3NC(=O)[C@H]3N4C(=O)[C@@H](NC(=O)[C@H](C)NC)CCS[C@H]4CC3(C)C)N2C1=O ?
Ans: > 50 µM

Q: Also COC(=O)C(Cc1c[nH]c2ccccc12)NP(=O)(O)OCC1OC(n2ccc(N)nc2=O)C(O)C1O (stereo not drawn) ?
Ans: > 100 µM

Q: Now this one: NC1=NC(=O)[C@H](Cc2c[nH]c3ccccc23)N1C(=O)OCc1ccccc1
Ans: > 100 µM

Q: Here is the next molecule: COC(=O)C1C(OS(=O)(=O)O)CCC2CN3CCc4c([nH]c5ccccc45)C3CC21 (stereo not drawn)
Ans: > 100 µM

Q: Same question, CN(CCCN=C=S)CCCN1c2ccccc2CCc2ccccc21 this time
Ans: 4.03 µM

Q: Can you handle O=C(O)c1ccc(C(=O)Nc2cccc3ccccc23)c(C(=O)O)c1 next?
Ans: > 100 µM

Q: What about COc1ccc2[nH]c3c(C)c4ccncc4c(C)c3c2c1 ?
Ans: 3.55 µM

Q: Try this molecule next: Nc1nccc2c1ncn2[C@H]1C[C@H](O)[C@@H](CO)O1
Ans: > 100 µM

Q: And for COc1nc(-c2c[nH]c3ccccc23)cnc1N ?
Ans: 54.2 µM

Q: Now consider CCc1n[nH]c(=O)n1/N=C/c1ccc(/C=N/n2c(CC)n[nH]c2=O)cc1 and answer again.
Ans: > 100 µM

Q: NC(N)=NN=C(c1ccccc1)c1ccccc1 ?
Ans: 7.91 µM

Q: Try this molecule next: OCCCCC#Cc1ccccc1C#Cc1ccccn1
Ans: 88.3 µM

Q: Please answer likewise for c1ccc2c(c1)nnn2CN1CCOCC1
Ans: > 100 µM

Q: # repeat for Cc1cc2c(O)c(c1)CN(Cc1ccccc1)Cc1cc(C)cc(c1O)CN(Cc1ccccc1)Cc1cc(C)cc(c1O)CN(Cc1ccccc1)C2
Ans: > 100 µM

Q: # iterate: O=C(/C=C/c1ccc2ccccc2c1)NCc1ccc(C(=O)NCc2ccccc2)cc1
Ans: > 100 µM

* * *

# System: UO-31 renal
# procedure details: NCI tumour cell line growth inhibition, 48 h
Reported TGI by item:

| compound | experimental value |
| --- | --- |
| COc1ccc2cc(C#Cc3ccc(-n4c(/C=C/c5cc(OC)c(OC)c(OC)c5)nc5ccccc5c4=O)c(C)c3)ccc2c1 | > 100 µM |
| O=C(C1OC1c1ccc(F)cc1)C12CC3CC(CC(C3)C1)C2 (centres undefined) | 51.5 µM |
| Cc1ccc(C(=O)N/N=C(\N=Nc2cccc([N+](=O)[O-])c2)c2ccc(N(C)C)cc2)cc1 | > 100 µM |

From here, focus on the item given below.
Q: Returns the measured TGI for the input compound. Input: COC(=O)C1=C(O)C(C(=O)OC)[C@@]2(O)[C@@H](C(=O)OC)C(c3ccc(OC(=O)/C=C/c4ccccc4)cc3)C[C@@H]1[C@@H]2C(=O)OC (some centres undefined)
Ans: 25.5 µM

* * *

# System: NCI/ADR-RES ovarian
# procedure details: NCI tumour cell line growth inhibition, 48 h
Quick list: TGI per entry.
Your answer should be a plain number; it is taken to be in µM.

| compound | target | experimental value |
| --- | --- | --- |
| O=C(C[n+]1cccc2cc(Cl)ccc21)c1ccc2c(c1)CCCC2 | NCI/ADR-RES ovarian | 67.3 |
| CCCCC(CCCCCC(CCCC)C1NC(C)Cc2cc(OC)c(OC)cc21)C1NC(C)Cc2cc(OC)c(OC)cc21 (centres undefined) | NCI/ADR-RES ovarian | 3.07 |
| CCNCCCNc1c2ccccc2nc2ccccc12 | NCI/ADR-RES ovarian | 10.2 |

Then this compound:
Q: Any idea what TGI was measured for C=C1CC2(CC(c3ccccc3OC)OC(c3ccccc3OC)C2)OC1=O (centres undefined) ?
Ans: 7.73

* * *

# Tested on: CAKI-1 renal
# procedure details: NCI tumour cell line growth inhibition, 48 h; in the data active means GI50 below about 0.43 µM; inactive means the rest
Hello, when you answer, please use one of the following outcomes: T (active), F (inactive)

Previously resolved entries follow.
| compound | cat |
| --- | --- |
| COc1cc(Nc2ccnc(NCCNc3ccnc4cc(Cl)ccc34)n2)cc(OC)c1 | F |
| Cc1ccc(S(=O)(=O)c2ccccc2)cc1 | F |
| CCC[CH2][Sn]1([CH2]CCC)[O]CC(CN2CCCCC2)[O]1 (stereo not given) | T |

Q: Call for entry O=C1/C=C/[C@@H](O)[C@@H]2C[C@@H](O)C[C@H]2/C=C/CCC[C@H](CCOCc2ccccc2)O1 :
Ans: T

Q: What about this compound? O=c1cc(-c2ccc3ccccc3c2)[nH]c2ncc(Cl)cc12
Ans: F

Q: Next record, please: C=CC(=O)N1CCN(CCCn2c(=O)c(-c3c(Cl)c(OC)cc(OC)c3Cl)cc3cnc(NC)nc32)CC1
Ans: F
